# System: BV2 (mouse microglia) cell line
# assay info: pHrodo-myelin phagocytosis/cell viability high content imaging assay: viability (cell count, nuclear area, nuclear intensity)
# study conditions: BV2 cells, 10 uM compound, 48 hours treatment
readout: 3. Nuclear DNA Intensity (% control)
Record the value in % control, omitting the unit from your answer.

Some compounds with known 3. Nuclear DNA Intensity (% control) results, for comparison:
> print(dat)
                                    compound                               readout  measurement.units  numeric.value
 1  CN(C)CCCn1c(N)c(-c2nc3ccccc3[nH]2)c2nc3ccccc3nc21 [UNC10302891A]  3. Nuclear DNA Intensity (% control)          % control           98.0
 2  CC(C)c1ccc(/C=N/NC(=O)c2ccc(O)cc2)cc1 [UNC10302878A]  3. Nuclear DNA Intensity (% control)          % control          108.0
 3  Cc1ccc(NC(=O)c2ccc(CN3CCN(C)CC3)cc2)cc1Nc1nc(-c2cccnc2)cs1 [UNC10126573A, masitinib, reference compound]  3. Nuclear DNA Intensity (% control)          % control           43.3
 4  Fc1ccc(C(CCCNCC2CCc3[nH]c4ccc(F)cc4c3C2)c2ccc(F)cc2)cc1 (stereo not shown) [UNC10302893A]  3. Nuclear DNA Intensity (% control)          % control           33.1
 5  CC(=O)N1CCC(NC(=O)NC23CC4CC(CC(C4)C2)C3)CC1 [UNC10302683A]  3. Nuclear DNA Intensity (% control)          % control          107.4
 6  CCCCCOc1cc2c(cc1-c1cc(/C=C/C(=O)O)ccc1O)C(C)(C)CCC2(C)C [UNC10302971A]  3. Nuclear DNA Intensity (% control)          % control          104.7
 7  CCCCNc1ncc2c(-c3ccc(CN4CCN(C)CC4)cc3)cn([C@H]3CC[C@H](O)CC3)c2n1 [UNC2025C, reference compound]  3. Nuclear DNA Intensity (% control)          % control           19.1
 8  CC(C)[C@H](O)C(=O)N[C@@H](C)C(=O)N[C@@H]1C(=O)N(C)CCc2ccccc21 [UNC10303095A]  3. Nuclear DNA Intensity (% control)          % control          104.4
 9  Cc1cc2c(cc1C(=O)c1ccc(C(=O)O)cc1)C(C)(C)CCC2(C)C [UNC10302892A]  3. Nuclear DNA Intensity (% control)          % control           95.0
10  Cc1cc(NC(=O)Nc2ccc(F)c(F)c2)n(-c2ccccc2)n1 [UNC10302846A]  3. Nuclear DNA Intensity (% control)          % control          107.1

Return 3. Nuclear DNA Intensity (% control) (reported value) for this compound: Br.CCCc1cc(-c2nc(-c3ccc(C)cc3)cs2)ccn1 [UNC10302889A] 117.7

Return 3. Nuclear DNA Intensity (% control) (reported value) for this compound: CN(C)c1ccc2c(c1)Sc1cc(N(C)C)ccc1N2.CS(=O)(=O)O.CS(=O)(=O)O [UNC10303097A, reference compound] 58.9

Return 3. Nuclear DNA Intensity (% control) (reported value) for this compound: CN(CCOc1ccc(CC2SC(=O)NC2=O)cc1)c1ccccn1 (stereo not shown) [UNC10121399D] 100.2

Return 3. Nuclear DNA Intensity (% control) (reported value) for this compound: Cc1cc2c(cc1C1(c3ccc(C(=O)O)cn3)CC1)C(C)(C)CCC2(C)C [UNC10302904A] 92.6

Return 3. Nuclear DNA Intensity (% control) (reported value) for this compound: Cc1cccc(-c2nn3c(c2-c2ccnc4ccc(C(N)=O)cc24)CCC3)n1 [UNC10245080A] 97.4

Return 3. Nuclear DNA Intensity (% control) (reported value) for this compound: COc1cc(C(=O)NS(=O)(=O)c2ccccc2C)ccc1Cc1cn(C)c2ccc(NC(=O)OC3CCCC3)cc12 [UNC10121228A] 103.9

From: paper PMC9019904
